System: Streptococcus pneumoniae
Test: MIC against clinically isolated aerobic Gram-positive strains
Assay type: cell-based
Conditions: 22 strains
reported_metric: MIC Range

Recorded MIC Range, per entry:
[
  {
    "smiles_input": "C[C@@H](O)[C@H]1C(=O)N2C(C(=O)O)=C(SCCN=CN)C[C@H]12",
    "MIC Range": "8 to 500 ng/mL"
  },
  {
    "smiles_input": "C[C@@H](O)[C@H]1C(=O)N2C(C(=O)O)=C(S[C@@H]3CN[C@H](/C=C/c4cc(C(=O)O)no4)C3)[C@H](C)[C@H]12",
    "MIC Range": "8 to 250 ng/mL"
  },
  {
    "smiles_input": "C[C@@H](O)[C@H]1C(=O)N2C(C(=O)O)=C(S[C@@H]3CN[C@H](C(=O)N(C)C)C3)[C@H](C)[C@H]12",
    "MIC Range": "8 to 500 ng/mL"
  }
]

As a next step, examine the molecule that follows.
Task: Give me measured MIC Range, please, for this molecule: "C[C@@H](O)[C@H]1C(=O)N2C(C(=O)O)=C(S[C@@H]3CN[C@H](C(=O)Nc4cccc(C(=O)O)c4)C3)[C@H](C)[C@H]12"
Result: 8 to 1000 ng/mL

---

So I've got a bunch of compounds here, and I need their MIC Range values.
System: Providentia sp.
Experiment: MIC against clinically isolated aerobic Gram-negative strains
Assay type: cell-based
Details: 13 strains

Recorded MIC Range, per entry:
[
  {
    "compound": "C[C@@H](O)[C@H]1C(=O)N2C(C(=O)O)=C(S[C@@H]3CN[C@H](C(=O)Nc4cccc(C(=O)O)c4)C3)[C@H](C)[C@H]12 [EPM, ertapenem]",
    "MIC Range": "0.008 to 16 µg/mL"
  },
  {
    "compound": "C[C@@H](O)[C@H]1C(=O)N2C(C(=O)O)=C(SCCN=CN)C[C@H]12 [IPM, Imipenem]",
    "MIC Range": "0.25 to 4 µg/mL"
  },
  {
    "compound": "C[C@@H](O)[C@H]1C(=O)N2C(C(=O)O)=C(S[C@@H]3CN[C@H](C(=O)N(C)C)C3)[C@H](C)[C@H]12 [MPM, meropenem]",
    "MIC Range": "0.015 to 2 µg/mL"
  }
]

As a next step, examine the compound that follows.
Task: Give me measured MIC Range, please, for this compound: C[C@@H](O)[C@H]1C(=O)N2C(C(=O)O)=C(S[C@@H]3CN[C@H](/C=C/c4cc(C(=O)O)no4)C3)[C@H](C)[C@H]12 [Example]
Result: 0.008 to 8 µg/mL

---

Tested on: Proteus mirabilis
Assay: MIC against clinically isolated aerobic Gram-negative strains
Assay type: cell-based
Conditions: 15 strains
reported_metric: MIC90 (µg/mL)
Answers are plain numbers, in µg/mL.

Recorded MIC90, per entry:
[
  {
    "molecule": "C[C@@H](O)[C@H]1C(=O)N2C(C(=O)O)=C(S[C@@H]3CN[C@H](C(=O)Nc4cccc(C(=O)O)c4)C3)[C@H](C)[C@H]12 [EPM, ertapenem]",
    "reported_metric": "MIC90",
    "reported": 0.015
  },
  {
    "molecule": "C[C@@H](O)[C@H]1C(=O)N2C(C(=O)O)=C(SCCN=CN)C[C@H]12 [IPM, Imipenem]",
    "reported_metric": "MIC90",
    "reported": 2
  },
  {
    "molecule": "C[C@@H](O)[C@H]1C(=O)N2C(C(=O)O)=C(S[C@@H]3CN[C@H](/C=C/c4cc(C(=O)O)no4)C3)[C@H](C)[C@H]12 [Example]",
    "reported_metric": "MIC90",
    "reported": 0.06
  }
]

Task: Give me measured MIC90, please, for this molecule: C[C@@H](O)[C@H]1C(=O)N2C(C(=O)O)=C(S[C@@H]3CN[C@H](C(=O)N(C)C)C3)[C@H](C)[C@H]12 [MPM, meropenem]
Result: 0.06

---

Test system: Klebsiella pneumoniae
Assay: MIC against clinically isolated aerobic Gram-negative strains
Type: cell-based
Settings: 30 strains
reported_metric: MIC Range

[
  {
    "smiles_input": "C[C@@H](O)[C@H]1C(=O)N2C(C(=O)O)=C(S[C@@H]3CN[C@H](/C=C/c4cc(C(=O)O)no4)C3)[C@H](C)[C@H]12",
    "tgt": "Klebsiella pneumoniae",
    "MIC Range": "0.015 to 0.25 µg/mL"
  },
  {
    "smiles_input": "C[C@@H](O)[C@H]1C(=O)N2C(C(=O)O)=C(SCCN=CN)C[C@H]12",
    "tgt": "Klebsiella pneumoniae",
    "MIC Range": "0.06 to 1 µg/mL"
  },
  {
    "smiles_input": "C[C@@H](O)[C@H]1C(=O)N2C(C(=O)O)=C(S[C@@H]3CN[C@H](C(=O)Nc4cccc(C(=O)O)c4)C3)[C@H](C)[C@H]12",
    "tgt": "Klebsiella pneumoniae",
    "MIC Range": "0.008 to 1 µg/mL"
  }
]

Task: Give me measured MIC Range, please, for this molecule: "C[C@@H](O)[C@H]1C(=O)N2C(C(=O)O)=C(S[C@@H]3CN[C@H](C(=O)N(C)C)C3)[C@H](C)[C@H]12"
Result: 0.015 to 0.06 µg/mL

---

Tested on: Acinetobacter baumannii
Assay: MIC against clinically isolated aerobic Gram-negative strains
Type: cell-based
Settings: 30 strains
reported_metric: MIC50
Your reply should be a number followed by the unit it is expressed in.

Recorded MIC50, per entry:
[
  {
    "compound": "C[C@@H](O)[C@H]1C(=O)N2C(C(=O)O)=C(S[C@@H]3CN[C@H](C(=O)N(C)C)C3)[C@H](C)[C@H]12 [MPM, meropenem]",
    "MIC50": "1 µg/mL"
  },
  {
    "compound": "C[C@@H](O)[C@H]1C(=O)N2C(C(=O)O)=C(SCCN=CN)C[C@H]12 [IPM, Imipenem]",
    "MIC50": "1 µg/mL"
  },
  {
    "compound": "C[C@@H](O)[C@H]1C(=O)N2C(C(=O)O)=C(S[C@@H]3CN[C@H](C(=O)Nc4cccc(C(=O)O)c4)C3)[C@H](C)[C@H]12 [EPM, ertapenem]",
    "MIC50": "8 µg/mL"
  }
]

As a next step, examine the compound that follows.
Task: Give me measured MIC50, please, for this compound: C[C@@H](O)[C@H]1C(=O)N2C(C(=O)O)=C(S[C@@H]3CN[C@H](/C=C/c4cc(C(=O)O)no4)C3)[C@H](C)[C@H]12 [Example]
Result: 8 µg/mL

---

Test system: Moraxella catarrhalis
Assay: MIC against clinically isolated aerobic Gram-negative strains
Type: cell-based
Conditions: 24 strains
reported_metric: MIC90 (µg/mL)
Answers are plain numbers, in µg/mL.

Recorded MIC90, per entry:
[
  {
    "smiles_input": "C[C@@H](O)[C@H]1C(=O)N2C(C(=O)O)=C(S[C@@H]3CN[C@H](C(=O)N(C)C)C3)[C@H](C)[C@H]12",
    "measurement_unit": "µg/mL",
    "MIC90": 0.008
  },
  {
    "smiles_input": "C[C@@H](O)[C@H]1C(=O)N2C(C(=O)O)=C(SCCN=CN)C[C@H]12",
    "measurement_unit": "µg/mL",
    "MIC90": 0.06
  },
  {
    "smiles_input": "C[C@@H](O)[C@H]1C(=O)N2C(C(=O)O)=C(S[C@@H]3CN[C@H](C(=O)Nc4cccc(C(=O)O)c4)C3)[C@H](C)[C@H]12",
    "measurement_unit": "µg/mL",
    "MIC90": 0.03
  }
]

Task: Using Moraxella catarrhalis as the test system, report measured MIC90 of "C[C@@H](O)[C@H]1C(=O)N2C(C(=O)O)=C(S[C@@H]3CN[C@H](/C=C/c4cc(C(=O)O)no4)C3)[C@H](C)[C@H]12" .
Result: 0.06

---

System: Escherichia coli
Experiment: MIC against clinically isolated aerobic Gram-negative strains
Format: cell-based
Details: 30 strains
reported_metric: MIC90 (µg/mL)
Numbers only, in µg/mL.

[
  {
    "compound": "C[C@@H](O)[C@H]1C(=O)N2C(C(=O)O)=C(S[C@@H]3CN[C@H](/C=C/c4cc(C(=O)O)no4)C3)[C@H](C)[C@H]12 [Example]",
    "reported": 0.25
  }
]

// for each compound below, give its MIC90
1. C[C@@H](O)[C@H]1C(=O)N2C(C(=O)O)=C(S[C@@H]3CN[C@H](C(=O)N(C)C)C3)[C@H](C)[C@H]12 [MPM, meropenem]
2. C[C@@H](O)[C@H]1C(=O)N2C(C(=O)O)=C(SCCN=CN)C[C@H]12 [IPM, Imipenem]
3. C[C@@H](O)[C@H]1C(=O)N2C(C(=O)O)=C(S[C@@H]3CN[C@H](C(=O)Nc4cccc(C(=O)O)c4)C3)[C@H](C)[C@H]12 [EPM, ertapenem]

Result:
[0.03, 0.5, 0.12]

Entry source: patent US20080039438A1
